testDetails: ABTS cation radical scavenging (734 nm)
experimentalConditions: read-out: ABTS IC50±SD
measureName: IC50 (µM)
Please reply with the bare figure in µM and do not write the unit itself.

Below are worked cases with known answers.
COC(=O)C=Cc1cccc(OC(=O)c2cccnc2)c1 [Compound 2f]; 81
COC(=O)C=Cc1cc(OC)c(OC(=O)c2cccnc2)c(OC)c1 [Compound 2d]; 21.6

QUERY: Reported IC50 for O=C(NCc1ccc2c(c1)OCO2)c1cccnc1 [Compound 2e] : what is it?
RESULT: 45.6

====

testDetails: DPPH radical scavenging (517 nm)
experimentalConditions: 80 µM
measureName: DPPH Inhibition % (%)
Please reply with the bare figure in % and do not write the unit itself.

Below are worked cases with known answers.
O=C(NCc1ccc2c(c1)OCO2)c1cccnc1; 55.8
COc1cc(C(C)=O)ccc1OC(=O)c1cccnc1 [Compound 2i, 4-Acetyl-2-methoxyphenyl nicotinate]; 49.83
COC(=O)C=Cc1ccccc1OC(=O)c1cccnc1; 50.02
COC(=O)C=Cc1cc(OC)c(OC(=O)c2cccnc2)c(OC)c1; 87.4
O=C1O[C@H]([C@@H](O)CO)C(O)=C1O [Ascorbic acid, reference compound]; 94.3

QUERY: Reported DPPH Inhibition % for CCOc1ccc2nc(NC(=O)c3cccnc3)sc2c1 : what is it?
RESULT: 49.83
